molecular target: 5-HT1A human receptors (Homo sapiens); construct: expressed in transfected cells; host or cells: CHO cells; experiment: 5-HT1A Radioligand Receptor Binding Assay ([3H]-8-OH-DPAT, CHO cell membranes); settings: compound at 10^-7 M, singlicate; [3H]-8-OH-DPAT 0.6-0.7 nM; read-out: 5-HT1A receptor binding assay % inhib. (10^-7 M)
Sequence (P08908 whole entry): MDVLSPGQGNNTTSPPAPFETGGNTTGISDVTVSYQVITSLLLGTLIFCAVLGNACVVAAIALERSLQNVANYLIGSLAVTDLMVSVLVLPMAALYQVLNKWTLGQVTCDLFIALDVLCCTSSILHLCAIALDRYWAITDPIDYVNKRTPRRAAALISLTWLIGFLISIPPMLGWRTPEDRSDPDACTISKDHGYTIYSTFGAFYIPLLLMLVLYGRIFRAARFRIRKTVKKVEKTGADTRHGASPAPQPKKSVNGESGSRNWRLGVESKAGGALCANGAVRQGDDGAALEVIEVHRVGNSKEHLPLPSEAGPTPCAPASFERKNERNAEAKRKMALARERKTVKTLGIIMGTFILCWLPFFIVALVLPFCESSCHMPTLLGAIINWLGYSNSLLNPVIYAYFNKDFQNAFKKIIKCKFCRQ
ASSAY METRIC: inhibition at 0.1 µM (%)
Express the result in % but write the number alone.

Example entries and their recorded answers appear below.
O=c1n(CCO)c2ccccc2n1CCCCN1CCN(c2cccc(Cl)c2)CC1: 93
CS(=O)(=O)NCCn1c(=O)n(C/C=C\CN2CC=C(c3ccccc3)CC2)c2ccccc21: 93
Cc1cccc(N2CCN(CCCCn3c(=O)n(CCN4CCCCC4)c4ccccc43)CC2)c1C: 90

// CS(=O)(=O)NCCn1c(=O)n(C/C=C/CN2CCN(c3ccc(Cl)c(Cl)c3)CC2)c2ccccc21 : inhibition at 0.1 µM value = 73

response.value for O=c1n(C/C=C\CN2CCN(c3cccc(C(F)(F)F)c3)CC2)c2ccccc2n1CCN1CCCCC1 (field: inhibition at 0.1 µM) = 92

Entry COCCn1c(=O)n(C/C=C/CN2CCN(c3ccc(Cl)c(Cl)c3)CC2)c2ccccc21 ; inhibition at 0.1 µM = 71

// inhibition at 0.1 µM value for O=c1n(C/C=C/CN2CCN(c3cccc(C(F)(F)F)c3)CC2)c2ccccc2n1CCN1CCCCC1 : 95

response.value for O=c1n(C/C=C\CN2CC=C(c3ccccc3)CC2)c2ccccc2n1CCN1CCCCC1 (field: inhibition at 0.1 µM) = 94

The molecule listed as COCCn1c(=O)n(CCN2CCN(c3cccc(Cl)c3)CC2)c2ccccc21 shows inhibition at 0.1 µM equal to 96

---

biological target: D4 human receptors (Homo sapiens); construct: expressed in transfected cells; host or cells: CHO cells; experiment: D4 Radioligand Receptor Binding Assay ([3H] YM-09151-2, CHO cell membranes); details: compound at 10^-7 M, singlicate; [3H] YM-09151-2 0.15-0.25 nM; read-out: D4 receptor binding assay % inhib. (10^-7 M)
Please use 1 whenever inhibition at 0.1 µM is not below 60%, and 0 whenever it is.

Please review the entries below; each comes with its answer.
CCNC(=O)OCCn1c(=O)n(C/C=C/CN2CCN(c3ccccc3)CC2)c2ccccc21: 0
CCNC(=O)OCCn1c(=O)n(C/C=C/CN2CCN(c3cccc(Cl)c3)CC2)c2ccccc21: 0
O=c1n(C/C=C\CN2CCN(c3ccccc3)CC2)c2ccccc2n1CCO: 0
O=c1n(CCN2CC=C(c3ccccc3)CC2)c2ccccc2n1CCN1CCOCC1: 0
CS(=O)(=O)NCCn1c(=O)n(C/C=C/CN2CCN(c3ccc(Cl)c(Cl)c3)CC2)c2ccccc21: 0

Kindly review the next compound as well.
Is reported inhibition at 0.1 µM greater than or equal to 60% here: O=c1n(CCO)c2ccccc2n1CCCCN1CCN(c2ccc(Cl)c(Cl)c2)CC1
1

---

biological target: D4 human receptors (Homo sapiens, UniProt P21917); construct: expressed in transfected cells; host or cells: CHO cells; experiment: D4 Radioligand Receptor Binding Assay ([3H] YM-09151-2, CHO cell membranes); settings: compound at 10^-7 M, singlicate; [3H] YM-09151-2 0.15-0.25 nM; read-out: D4 receptor binding assay % inhib. (10^-7 M)
Sequence (P21917 whole entry): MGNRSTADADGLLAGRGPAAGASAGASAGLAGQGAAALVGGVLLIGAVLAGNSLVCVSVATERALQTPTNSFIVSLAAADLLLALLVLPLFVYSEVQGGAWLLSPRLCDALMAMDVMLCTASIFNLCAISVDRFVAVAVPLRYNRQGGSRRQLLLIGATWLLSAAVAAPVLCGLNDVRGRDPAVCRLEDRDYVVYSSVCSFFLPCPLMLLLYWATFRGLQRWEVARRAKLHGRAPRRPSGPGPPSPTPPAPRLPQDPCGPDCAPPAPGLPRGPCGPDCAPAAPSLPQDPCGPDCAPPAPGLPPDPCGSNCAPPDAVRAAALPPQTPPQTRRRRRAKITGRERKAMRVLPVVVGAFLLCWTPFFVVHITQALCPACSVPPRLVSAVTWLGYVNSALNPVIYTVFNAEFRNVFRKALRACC
# inhibition at 0.1 µM >= 50% gives TRUE, anything below gives FALSE

O=c1n(C/C=C\CN2CCN(C(c3ccccc3)c3ccc(Cl)cc3)CC2)c2ccccc2n1CCN1CCCCC1 (centres unmarked) [compound 311]: TRUE
COCCn1c(=O)n(C/C=C/CN2CCN(c3ccccc3)CC2)c2ccccc21 [compound 293]: FALSE

For this molecule, is measured inhibition at 0.1 µM 50% or higher? CS(=O)(=O)NCCn1c(=O)n(C/C=C\CN2CCN(c3ccc(Cl)c(Cl)c3)CC2)c2ccccc21 [compound 505]
TRUE

Confirm if inhibition at 0.1 µM reported for the molecule O=c1n(C/C=C/CN2CCN(c3cccc(C(F)(F)F)c3)CC2)c2ccccc2n1CCN1CCCCC1 [compound 335] is 50% or above.
TRUE

Does the molecule Cc1cccc(N2CCN(CCCCn3c(=O)n(CCO)c4ccccc43)CC2)c1C [compound 73] have recorded inhibition at 0.1 µM that is 50% or more?
TRUE

Is it the case that COCCn1c(=O)n(CCN2CCN(c3cccc(Cl)c3)CC2)c2ccccc21 [compound 164] has inhibition at 0.1 µM reaching or exceeding 50%?
FALSE

Is the recorded value of inhibition at 0.1 µM equal to or greater than 50% for this molecule? COc1ccccc1N1CCN(C/C=C/Cn2c(=O)n(CCNS(C)(=O)=O)c3ccccc32)CC1 [compound 535]
FALSE

Determine whether this molecule has inhibition at 0.1 µM no lower than 50%: CS(=O)(=O)NCCn1c(=O)n(C/C=C\CN2CC=C(c3ccccc3)CC2)c2ccccc21 [compound 504]
FALSE

Textbook exercise: given the entry CCNC(=O)OCCn1c(=O)n(CCCCN2CCN(c3ccccc3)CC2)c2ccccc21 [compound 75] , state whether its inhibition at 0.1 µM is greater than or equal to 50%.
TRUE
